Experiment: qHTS of pediatric cancer cell lines to identify multiple opportunities for drug repurposing: Confirmatory screen for MG 63 (6-TG R) cells (AID 1347119); note: nearly all actives have a fitted effect of over 55% in size
Settings: MG-63 (6-TG resistant) osteosarcoma viability; series mostly up to 45.9 µM
Inconclusive results are not listed. Activity calls are given as the source filed them. Calls come from the whole dose curve; as a rule, active = well fitted cell-killing curve with a large enough effect; inconclusive = small, poorly fitted or top-dose-only effect, or effect the other way; inactive = no such curve, though single readings can be large or run the other way.
Outcomes: active, inactive

INSERT INTO measurements (compound, answer_label) VALUES
  ('COc1cc2cc(c1Cl)N(C)C(=O)C[C@H](OC(=O)C(C)C)[C@]1(C)O[C@H]1[C@H](C)[C@@H]1C[C@@](O)(NC(=O)O1)[C@H](OC)C=CC=C(C)C2', 'active'),
  ('C[C@@]12OC(=O)[C@]1([C@@H](O)[C@@H]1C=CCCC1)NC(=O)[C@H]2CCCl', 'active'),
  ('O=C(O)COc1nc(Cl)c(Cl)cc1Cl', 'inactive'),
  ('O=C(Nc1ccncc1)C(=O)c1cn(Cc2ccc(Cl)cc2)c2ccccc12', 'active'),
  ('CO[C@H]1CCC(O[C@H]2C[C@H]([C@]3(C)CC[C@]4(C[C@H](O)[C@@H](C)[C@@H]([C@@H](C)C=C(C)C(=O)[C@H](C)C[C@H](C)C(=O)O)O4)O3)O[C@]3(O[C@@H]([C@H]4O[C@@](O)(CO)[C@H](C)C[C@H]4C)C[C@H]3C)[C@H]2C)O[C@H]1C (stereo partly specified)', 'active'),
  ('CC(C)(C)C(O)C(Oc1ccc(Cl)cc1)n1cncn1 (stereo unspecified)', 'inactive');

* * *

Experiment: qHTS of pediatric cancer cell lines to identify multiple opportunities for drug repurposing: Confirmatory screen for A673 cells (AID 1347110);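 note: cells exposed to compound for 48 h before the viability read; nearly all actives have a fitted effect of over 65% in size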
Conditions: A673 Ewing sarcoma cell viability; series mostly up to 45.9 µM
Inconclusive results are not listed. Calls of active or inactive are those of the source. Calls come from the whole dose curve; as a rule, active = well fitted cell-killing curve with a large enough effect; inconclusive = small, poorly fitted or top-dose-only effect; inactive = flat fitted curve, though single readings scatter.
Labels: active, inactive

INSERT INTO assay_data (smiles_str, answer_label) VALUES
  ('Cc1[nH]nc2ccc(-c3cncc(OC[C@@H](N)Cc4c[nH]c5ccccc45)c3)cc12', 'active'),
  ('CC(=Cc1csc(C)n1)[C@@H]1C[C@H]2O[C@@H]2CCC[C@H](C)[C@@H](O)[C@@H](C)C(=O)C(C)(C)[C@@H](O)CC(=O)O1', 'active'),
  ('C[C@@]12OC(=O)[C@]1([C@@H](O)[C@@H]1C=CCCC1)NC(=O)[C@H]2CCCl', 'active'),
  ('C[C@]12Cc3cn[nH]c3C[C@@H]1CC[C@@H]1[C@H]2CC[C@@]2(C)[C@H]1CC[C@]2(C)O', 'inactive'),
  ('CC=C(C)C(=O)N[C@@H](c1ccccc1)[C@@H](O)C(=O)O[C@H]1C[C@@]2(O)[C@@H](OC(=O)c3ccccc3)[C@@H]3[C@]4(OC(C)=O)CO[C@@H]4C[C@H](O)[C@@]3(C)C(=O)[C@H](OC(C)=O)C(=C1C)C2(C)C', 'active'),
  ('O=c1[nH]c2ccc(Cl)cc2c(N[C@@H]2CN3CCC2CC3)c1-c1nc2ccccc2[nH]1', 'active'),
  ('O=C(O)COc1nc(Cl)c(Cl)cc1Cl', 'active'),
  ('CC(C)[C@]12O[C@@H]1[C@@H]1O[C@]13[C@]1(O[C@H]1C[C@@H]1C4=C(CC[C@@]13C)C(=O)OC4)[C@H]2O', 'active'),
  ('CS(=O)(=O)c1ccc(C(=O)C2C(=O)CCCC2=O)c([N+](=O)[O-])c1', 'inactive');

Cited source for all entries: PubChem BioAssay (NCATS)
